These data points were gathered from paper PMC12064818.

target-or-test-system: FLuc-C-HiBiT (Photinus pyralis, UniProt P08659)
Construct: firefly luciferase with C-terminal HiBiT tag, E. coli expressed
Sequence (P08659 whole entry, looked up): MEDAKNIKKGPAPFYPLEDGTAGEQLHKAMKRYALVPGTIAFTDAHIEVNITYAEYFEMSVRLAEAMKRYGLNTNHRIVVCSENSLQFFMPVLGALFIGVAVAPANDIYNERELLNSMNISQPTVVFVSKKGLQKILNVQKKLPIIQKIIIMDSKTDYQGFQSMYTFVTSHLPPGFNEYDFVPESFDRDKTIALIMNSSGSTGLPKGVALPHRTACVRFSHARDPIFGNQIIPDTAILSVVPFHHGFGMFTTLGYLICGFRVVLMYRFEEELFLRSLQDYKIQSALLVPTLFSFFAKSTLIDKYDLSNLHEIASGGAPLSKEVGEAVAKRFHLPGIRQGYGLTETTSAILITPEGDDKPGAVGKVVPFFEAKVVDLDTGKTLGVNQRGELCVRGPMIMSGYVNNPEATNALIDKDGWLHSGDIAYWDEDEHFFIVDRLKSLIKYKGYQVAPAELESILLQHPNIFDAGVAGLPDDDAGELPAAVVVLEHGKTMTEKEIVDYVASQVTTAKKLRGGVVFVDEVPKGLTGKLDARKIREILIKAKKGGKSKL
assay-protocol: biochemical
condition-parameters: enzyme activity, 10 uM ATP; read-out: IC50 or SDR50 (mM) / FLuc E
property: IC50 (mM)
Form entry: value (mM) — number only.

Sample Cc1cc(F)ccc1NC(=O)c1csc2c1CCC(C)C2 (centres unmarked) [NCGC00112512-01] — what was its IC50?
0.00279

// lookup IC50 for COc1ccc(C(=O)Nc2cc(C)c(O)c(-c3nc4ccccc4s3)c2)cc1OC [NCGC00103306-01]
0.0014

What does the record list as IC50 for Cc1ccc(-c2cc3c(=O)n(CCNC(=O)c4ccc(N(C)C)cc4)ccn3n2)c(C)c1 [NCGC00456986-01] ?
0.00313

Consider the compound shown here: O=C(NCc1ccc2c(c1)OCO2)C1CCN(C(=O)c2ncn3c2COC(c2ccccc2)C3)CC1 (centres unmarked) [NCGC00449781-01] What is its recorded IC50?
0.007

Using the record for Cc1ccc(N2CCN(c3nc(C(=O)O)cs3)CC2)cc1 [NCGC00432723-01] , report its IC50.
0.00197

What does the record list as IC50 for COc1ccc(C)cc1NC(=O)Nc1cccc(-c2ccc(N3CCCCC3)nn2)c1 [NCGC00427638-01] ?
0.00111
